Reported MIC80 C. albicans ATCC No. 10231 values are given for each entry in this list.
System: Candida albicans (ATCC Accession No. 10231)
Assay: MIC80 fungal growth inhibition, C. albicans ATCC 10231
Format: cell-based
Settings: Azole-susceptible; >80% growth inhibition, visual scoring
The answer is to be given in µg/mL; state only the numeric part.

Candida albicans (ATCC Accession No. 10231) assay, molecule O=C(NN=Cc1ccccn1)c1ccccn1 , recorded MIC80 C. albicans ATCC No. 10231 = 31

# lookup: O=C(NN=Cc1ccccn1)c1ccncc1 on Candida albicans (ATCC Accession No. 10231), MIC80 C. albicans ATCC No. 10231 = 125

// returns MIC80 C. albicans ATCC No. 10231 for O=C(NN=Cc1ccccn1)c1ccccc1O with Candida albicans (ATCC Accession No. 10231); value = 31

Note to self: MIC80 C. albicans ATCC No. 10231 of O=C(NN=Cc1ccccc1O)c1ccncc1 with Candida albicans (ATCC Accession No. 10231) was 8

Reading of MIC80 C. albicans ATCC No. 10231 for O=C(N/N=C/c1cc([N+](=O)[O-])ccc1O)c1ccc[n+]([O-])c1 with Candida albicans (ATCC Accession No. 10231): 8

More entries:
Record COc1ccc(O)c(/C=N/NC(=O)c2cccnc2)c1 has Candida albicans (ATCC Accession No. 10231) MIC80 C. albicans ATCC No. 10231 equal to 62

Value (MIC80 C. albicans ATCC No. 10231, Candida albicans (ATCC Accession No. 10231)) for record O=C(NN=Cc1cc(Cl)ccc1O)c1ccncc1 = 31

For O=C(NN=Cc1cc([N+](=O)[O-])ccc1O)c1cccnc1 on Candida albicans (ATCC Accession No. 10231), measured MIC80 C. albicans ATCC No. 10231 was 4

Tested system Candida albicans (ATCC Accession No. 10231); MIC80 C. albicans ATCC No. 10231 recorded for O=C(NN=Cc1cc(Br)ccc1O)c1cccnc1 was 4

Summary line: Cc1ccc(O)c(C=NNC(=O)c2ccc[n+]([O-])c2)c1 , Candida albicans (ATCC Accession No. 10231), reported MIC80 C. albicans ATCC No. 10231 = 16

====

Tested on: Vero (kidney) cells
Experiment: Mammalian cell toxicity, Promega CellTiter 96, kidney cells
Format: cell-based
Settings: through 10× MIC, 24 h
Procedure: Cytotoxicity was determined using non-cancerous Vero cells (kidney-african green monkey) and liver cells (Hep-2G) in accordance with Promega CellTiter 96 Non-Radioactive Cell Proliferation Assay (cat # G4000). Compounds were diluted in media and all assays were done in triplicate. […] Formazan product was scored spectrophotometrically with an automatic plate reader set at 570 nm. […] Wells containing 1% DMSO and no drug were used as a negative control and the average absorbance at 570 nm were set to 100%. […]
quantity-kind: cell toxicity

Entry under test: C(=N\Nc1ccccc1)/c1ccncc1 [AR48] . Its cell toxicity was no cell toxicity

Briefly, cell toxicity measured for C(=N\Nc1ccccc1)/c1cccnc1 [AR44] : no cell toxicity

====

In this section we review reported MIC80 values for a set of compounds.
Tested on: Candida albicans (ATCC Accession No. 10231)
Experiment: MIC80 fungal growth inhibition, C. albicans ATCC 10231
Assay type: cell-based
Conditions: Candida albicans, ATCC10231; Azole-susceptible; >80% growth inhibition, visual scoring; read-out: MIC80 C. albicans ATCC No. 10231
Experimental: The antifungal activity of the pyridinohydrazide and hydrazomethylpyridine derivatives described in the s were evaluated in vitro using Candida albicans (ATCC Accession No. 10231) and Candida glabrata (ATCC Accession No. 48435). In addition, the compounds were evaluated for activity against two previously-described clinical isolates of C. albicans known to have developed azole-resistance. […]
Only the number, expressed in µg/mL, is required.

Answered cases to consult:
Record COc1ccc(O)c(/C=N/NC(=O)c2ccc[n+]([O-])c2)c1 , field MIC80: 16

Summary for this compound, O=C(N/N=C/c1cc(Br)ccc1O)c1ccc[n+]([O-])c1 : MIC80 is 16

Field MIC80 (entry O=C(N/N=C/c1cc([N+](=O)[O-])ccc1O)c1ccccn1 ) reads 4

More entries:
For reference, reported MIC80 for Cc1ccc(O)c(/C=N/NC(=O)c2ccccn2)c1 stands at 2

Entry O=C(N/N=C/c1cc(Cl)ccc1O)c1ccccn1 ; MIC80 = 1

Query O=C(N/N=C/c1ccccc1O)c1cccnc1 yields MIC80 of 4

compound O=C(N/N=C/c1cc(Br)ccc1O)c1ccccn1 , MIC80 observed: 1

The measured MIC80 associated with C(=N\Nc1ccccc1)/c1cccnc1 reads 16

====

Tested on: Hep G2 (liver) cells
Experiment: Mammalian cell toxicity, Promega CellTiter 96, liver cells
Type: cell-based
Conditions: 100× MIC, 24 h
Method: Cytotoxicity was determined using non-cancerous Vero cells (kidney-african green monkey) and liver cells (Hep-2G) in accordance with Promega CellTiter 96 Non-Radioactive Cell Proliferation Assay (cat # G4000). Compounds were diluted in media and all assays were done in triplicate. […] Formazan product was scored spectrophotometrically with an automatic plate reader set at 570 nm. […] Wells containing 1% DMSO and no drug were used as a negative control and the average absorbance at 570 nm were set to 100%. […]
quantity-kind: cell toxicity

Kindly note the recorded cell toxicity for C(=N\Nc1ccccc1)/c1ccncc1 , which is toxic

Looking up C(=N\Nc1ccccc1)/c1cccnc1 , I see its cell toxicity listed as toxic

====

System: Hep G2 (liver) cells
Assay: Mammalian cell toxicity, Promega CellTiter 96, liver cells
Format: cell-based
Settings: through 10× MIC, 24 h
quantity-kind: cell toxicity

Bench note, Hep G2 (liver) cells: C(=N\Nc1ccccc1)/c1cccnc1 , cell toxicity reads no cell toxicity

Short answer on Hep G2 (liver) cells for C(=N\Nc1ccccc1)/c1ccncc1 , cell toxicity: no cell toxicity

====

Test system: Candida albicans (ATCC Accession No. 10231)
Test: MIC80 fungal growth inhibition, C. albicans ATCC 10231
Assay type: cell-based
Conditions: Azole-susceptible; >80% growth inhibition, visual scoring
Description: The antifungal activity of the pyridinohydrazide and hydrazomethylpyridine derivatives described in the s were evaluated in vitro using Candida albicans (ATCC Accession No. 10231) and Candida glabrata (ATCC Accession No. 48435). In addition, the compounds were evaluated for activity against two previously-described clinical isolates of C. albicans known to have developed azole-resistance. […]
quantity-kind: MIC80 C. albicans ATCC No. 10231 (µg/mL)
Only the number, expressed in µg/mL, is required.

Field: example entries. Status: answers known.
The compound O=C(NN=Cc1ccccn1)c1cccnc1 [AR35] showed MIC80 C. albicans ATCC No. 10231 equal to 125

So for O=C(NN=Cc1cc(Br)ccc1O)c1ccncc1 [AR17] , the logged MIC80 C. albicans ATCC No. 10231 turned out to be 16

Note to self: MIC80 C. albicans ATCC No. 10231 recorded for Cc1ccc(O)c(C=NNC(=O)c2ccncc2)c1 [AR14] was 4

Summary for this compound, O=C(NN=Cc1ccccn1)c1ccc[n+]([O-])c1 [AR38] : MIC80 C. albicans ATCC No. 10231 is 125

Record O=C(NN=Cc1ccccn1)c1ccccc1 [AR31] , field MIC80 C. albicans ATCC No. 10231: 62

Continuing:
Looking up O=C(NN=Cc1cc([N+](=O)[O-])ccc1O)c1ccncc1 [AR18] , I see its MIC80 C. albicans ATCC No. 10231 listed as 4

Lab note: measured MIC80 C. albicans ATCC No. 10231 of Cc1ccc(O)c(/C=N/NC(=O)c2cccnc2)c1 [AR8] was 4

Lookup result for O=C(NN=Cc1ccccc1O)c1ccc[n+]([O-])c1 [AR23] ; measured MIC80 C. albicans ATCC No. 10231: 31

# compound C(=NNc1ccccc1)c1ccccn1 [AR29] ; its MIC80 C. albicans ATCC No. 10231 = 16

====

Test system: Candida albicans (ATCC Accession No. 10231)
Experiment: MIC80 fungal growth inhibition, C. albicans ATCC 10231
Format: cell-based
Details: Candida albicans, ATCC10231; Azole-susceptible; >80% growth inhibition, visual scoring; read-out: MIC80 C. albicans ATCC No. 10231
Description: The antifungal activity of the pyridinohydrazide and hydrazomethylpyridine derivatives described in the s were evaluated in vitro using Candida albicans (ATCC Accession No. 10231) and Candida glabrata (ATCC Accession No. 48435). In addition, the compounds were evaluated for activity against two previously-described clinical isolates of C. albicans known to have developed azole-resistance. […]
Parameter MIC80: see the listing below.
Lab book: enter the figure in µg/mL, no units written.

Sample records with MIC80:
MIC80 for O=C(N/N=C/c1ccccc1O)c1ccccn1 is 16

Value of MIC80 reported for the compound COc1ccc(O)c(/C=N/NC(=O)c2ccncc2)c1 is 4

Documented MIC80 of O=C(N/N=C/c1cc(Cl)ccc1O)c1cccnc1 : 4

For reference, reported MIC80 for O=C(N/N=C/c1cc(Cl)ccc1O)c1ccc[n+]([O-])c1 stands at 16

Continuing:
MIC80 recorded for this compound, COc1ccc(O)c(/C=N/NC(=O)c2ccccn2)c1 , is 4
